# measured-target: BACH1 (Homo sapiens, UniProt O14867)
# Sequence (O14867 557-620 limits assumed): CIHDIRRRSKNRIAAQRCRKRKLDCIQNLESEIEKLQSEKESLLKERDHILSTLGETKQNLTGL
# method-notes: Direct-binding FRET assay
# Design: made in house
# applied-conditions: 4°C; C-terminal fluorescein design as donor, TAMRA target titrated; read-out: Kd
pKd: −log10 of the molar value. Where no end group is shown, it is not given here.
measurement-name: pKd

{"columns": ["sequence-text", "recorded-measurement"],
 "data": [
  ["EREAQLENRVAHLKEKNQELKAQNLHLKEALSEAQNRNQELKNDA [XBP1-d1]", "< 6.00"]
]}

Let us move to another entry and its pKd.
Q) # input sequence: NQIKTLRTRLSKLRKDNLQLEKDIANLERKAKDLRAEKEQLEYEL [ATF4-d1] ; wanted: its pKd
A) < 6.00
